- measurement target: hCA XII (Homo sapiens)
- Sequence (O43570 25-354): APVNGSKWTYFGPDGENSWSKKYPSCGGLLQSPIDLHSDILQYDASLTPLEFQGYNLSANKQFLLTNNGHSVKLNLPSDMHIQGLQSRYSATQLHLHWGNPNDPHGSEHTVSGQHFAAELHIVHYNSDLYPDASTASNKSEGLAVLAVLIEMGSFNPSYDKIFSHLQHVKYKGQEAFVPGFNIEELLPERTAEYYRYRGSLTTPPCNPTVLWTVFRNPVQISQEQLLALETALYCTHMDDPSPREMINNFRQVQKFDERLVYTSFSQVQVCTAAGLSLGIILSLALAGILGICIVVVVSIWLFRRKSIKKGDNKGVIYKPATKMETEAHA
property measured: Ki (µM)

Check out these entries, answers already filled in.
molecule="C/C(=N\\OCc1ccc(Cl)cc1)c1cc2ccccc2oc1=O [20b]" measurement_target="hCA XII (Homo sapiens)" measured_number=9.4
molecule=O=C(c1cc2ccccc2oc1=O)N1CCN(S(=O)(=O)c2cccs2)CC1 measurement_target="hCA XII (Homo sapiens)" measured_number=66.7
molecule="O=C(c1c(O)c2ccccc2oc1=O)N1CCN(S(=O)(=O)c2ccc(Br)s2)CC1 [16c]" measurement_target="hCA XII (Homo sapiens)" measured_number=36.5
molecule="O=C(c1c(O)c2ccccc2oc1=O)N1CCN(S(=O)(=O)c2ccccc2)CC1 [16b]" measurement_target="hCA XII (Homo sapiens)" measured_number=9.5
molecule=CCS(=O)(=O)N1CCN(C(=O)c2cc3ccccc3oc2=O)CC1 measurement_target="hCA XII (Homo sapiens)" measured_number=26.1

I = O=C(c1cc2ccc(O)cc2oc1=O)N1CCN(S(=O)(=O)c2ccccc2)CC1 [12b]
II = O=C(c1cc2ccccc2oc1=O)N1CCN(C(=S)Nc2ccccc2Cl)CC1
query: Lab note: check whether I or II shows the higher recorded Ki. # respond with the chosen item's label
result: II
(II: 47.8 µM, I: 9.3 µM)

----------
pKi: −log10 of the molar value.
Hi! I'm sharing some pKi results obtained with hCA XII (Homo sapiens).
property measured: pKi

compound="O=C(c1c(O)c2ccccc2oc1=O)N1CCN(S(=O)(=O)c2ccc(F)cc2)CC1 [16a]" measured_number=4.04
compound=O=C(c1cc2ccccc2oc1=O)N1CCN(C(=S)Nc2ccc(Cl)cc2)CC1 measured_number=5.10

A = O=C(c1cc2ccccc2oc1=O)N1CCN(C(=S)Nc2ccccc2)CC1
B = O=C(c1cc2ccccc2oc1=O)N1CCN(S(=O)(=O)c2ccc([N+](=O)[O-])cc2)CC1
C = O=C(c1cc2ccc(O)cc2oc1=O)N1CCN(S(=O)(=O)c2ccc(F)cc2)CC1 [12a]
query: hey, can you rank those compounds up there by pKi? biggest number first please Answer by listing the labels in the order asked for.
result: B, A, C
(B: 5.04, A: 4.50, C: 4.06)

----------
hCA IX (Homo sapiens): recorded Ki for assorted compounds
property measured: Ki (µM)

Solved entries:
compound="O=C(c1cc2ccccc2oc1=O)N1CCN(S(=O)(=O)c2ccc([N+](=O)[O-])cc2)CC1 [6a]" property_measured=Ki measured_number=7.1
compound="CCS(=O)(=O)N1CCN(C(=O)c2cc3ccccc3oc2=O)CC1 [6e]" property_measured=Ki measured_number=37.8
compound="O=C(c1cc2ccc(O)cc2oc1=O)N1CCN(S(=O)(=O)c2ccc(Br)s2)CC1 [12c]" property_measured=Ki measured_number=50.7

1 = O=C(c1cc2ccccc2oc1=O)N1CCN(C(=S)Nc2ccc(Cl)cc2)CC1 [7b]
2 = O=C(c1c(O)c2ccccc2oc1=O)N1CCN(S(=O)(=O)c2ccccc2)CC1 [16b]
3 = C/C(=N\OCc1ccc(F)cc1)c1cc2ccccc2oc1=O [20a]
4 = O=C(c1cc2ccccc2oc1=O)N1CCN(S(=O)(=O)c2ccc(Br)s2)CC1 [6d]
query: Sort the 4 compounds by Ki; largest first, smallest last. Labels, requested order.
result: 2, 3, 1, 4

----------
Notes on Ki obtained with hCA IX (Homo sapiens).
property measured: Ki (µM)

A = O=C(c1cc2ccccc2oc1=O)N1CCN(C(=S)Nc2ccccc2Cl)CC1
B = C/C(=N\OCc1ccc(Cl)cc1)c1cc2ccccc2oc1=O [20b]
query: Could you kindly indicate whether A or B has the higher Ki value? Reply briefly: the label of your chosen item.
result: A
